Assay: in vivo
Conditions: male, rat, iv, 2 mg/kg
MEASURED ENDPOINT: clearance (mL/min/kg)
Value expressed in mL/min/kg; do not type the unit.

Examples with answers:
{"columns": ["COMPOUND", "UNITS OF MEASURE", "clearance"],
 "data": [
  ["CSCC1CN(/N=C/c2ccc([N+](=O)[O-])o2)C(=O)O1 (racemic) [Nifuratel racemate, Nifuratel]", "mL/min/kg", 267],
  ["CSC[C@H]1CN(/N=C/c2ccc([N+](=O)[O-])o2)C(=O)O1 [R-nifuratel, (R)-Nifuratel]", "mL/min/kg", 49]
]}

Please turn your attention to the following entry.
q: If you can, please state the reported clearance value of CSC[C@@H]1CN(/N=C/c2ccc([N+](=O)[O-])o2)C(=O)O1 [S-Nifuratel, (S)-Nifuratel] .
a: 203
